Experiment: in vitro
Details: human, hela cells, % viability
Property: viability at 28.5 h, 10 µM (%)
Answer format: numeric, % implied, no suffix.

q: Returns the measured viability at 28.5 h, 10 µM for the input compound. Input: CCOC(=O)Cc1csc(NS(=O)(=O)c2ccc(OC(F)(F)F)cc2)n1
a: 110

q: And for COc1ccc(C(=O)NC2CCCNC2=O)s1 (centres unmarked) ?
a: 88.4

q: And for C=CCNC(=O)CCn1c(C(C)C)cc2cccnc21 ?
a: 105

q: And for COc1ccccc1NS(=O)(=O)c1ccc2c(c1)C1C=CCC1C(c1ccc(C(=O)O)cc1)N2 (centres unmarked) ?
a: 101

q: And for O=C(/C=C/c1ccccc1)NC(NCc1cccnc1)C(Cl)(Cl)Cl (centres unmarked) ?
a: 95.3

q: And for CSCCCNC(=O)N1CCN(c2cc(C(F)(F)F)ccn2)CC1 ?
a: 92.3

q: And for COc1cnc(/C=C\c2ccccc2)c(NC(=O)c2cc(C)oc2C)n1 ?
a: 95.1

q: And for O=C(O)c1ccc(CN2CCOC[C@H]2c2nc(-c3ccc(C(F)(F)F)cc3)c[nH]2)cc1 ?
a: 115

q: And for O=C(Cc1cc(F)c(F)c(F)c1)NCCc1c[nH]c2ccc(Cl)cc12 ?
a: 112

q: And for Cc1ccc(Br)cc1S(=O)(=O)N1CCN(C(c2ccccc2)c2ccccc2)CC1 ?
a: 95.3

q: And for S=C(NCCCN1CCOCC1)Nc1ccccc1Cl ?
a: 100

q: And for CC(C)(C)OC(=O)N1CCC(Oc2nccnc2OCc2ccc(Cl)cc2F)CC1 ?
a: 104

q: And for O=C(CCCC1CCNCC1)Nc1nnc(C2CC2)s1 ?
a: 97.1

q: And for S=C(NCc1ccc(-n2cccn2)cc1)NCC1CCCO1 (centres unmarked) ?
a: 96.7

q: And for Cc1cc(Oc2ccccc2)nc(NCc2ccccc2)n1 ?
a: 99.1

q: And for Oc1ccc(Nc2cc(-c3ccccc3)ncn2)cc1 ?
a: 79.8

q: And for CCc1nnc(N/N=C/c2cccs2)n1N [CBK026233C] ?
a: 97.9

q: And for O=C(O)c1cn(C2CC2)c2cc(N3CCN(C(=S)Nc4ccc5c(c4)OCCO5)CC3)c(F)cc2c1=O ?
a: 90.9

q: And for Cc1cccc(-c2ncc(NC(=O)c3cccc(N(C)C)c3)nc2-c2ccco2)c1 ?
a: 103

q: And for CC(=O)Nc1nc(OCCOc2ccccc2)cnc1-c1cnn(C)c1 ?
a: 92.6
